Origin of measurements: patent US20170273922A1

# Test system: 22Rv1 cells
# test_name: MTT assay (cytotoxicity), 22Rv1 cells
# Type: cell-based
# protocol_conditions: 72 h, Table 2.2
Lab note - cut at 3 µM for IC50: satisfied if strictly below, not satisfied if not.

O=C(N/C=C/c1cccc(F)c1)Nc1ccc([N+](=O)[O-])c(C(F)(F)F)c1    not satisfied
N#Cc1ccc(NC(=O)N/C=C/c2cc(C(F)(F)F)cc(C(F)(F)F)c2)cc1C(F)(F)F    satisfied
O=C(N/C=C/c1cc(C(F)(F)F)cc(C(F)(F)F)c1)Nc1ccc([N+](=O)[O-])c(C(F)(F)F)c1    satisfied
N#Cc1ccc(NC(=O)N/C=C/c2cc(C(F)(F)F)cc(C(F)(F)F)c2)cc1    satisfied
O=C(N/C=C/c1cccc(C(F)(F)F)c1)Nc1ccc([N+](=O)[O-])cc1    not satisfied
N#Cc1ccc(NC(=O)N/C=C/c2cc(C(F)(F)F)ccc2C(F)(F)F)cc1C(F)(F)F    satisfied
COc1cccc(NC(=O)N/C=C/c2ccccc2C(F)(F)F)c1    not satisfied
O=C(N/C=C/c1cccc([N+](=O)[O-])c1)Nc1ccc([N+](=O)[O-])c(C(F)(F)F)c1    not satisfied
O=C(N/C=C/c1ccccc1)Nc1cccc(C(F)(F)F)c1    not satisfied
O=C(N/C=C/c1cccc(OC(F)(F)F)c1)Nc1ccc([N+](=O)[O-])c(C(F)(F)F)c1    satisfied
